- MEASURED TARGET: human CB2 (Homo sapiens)
- Sequence (P34972 whole entry): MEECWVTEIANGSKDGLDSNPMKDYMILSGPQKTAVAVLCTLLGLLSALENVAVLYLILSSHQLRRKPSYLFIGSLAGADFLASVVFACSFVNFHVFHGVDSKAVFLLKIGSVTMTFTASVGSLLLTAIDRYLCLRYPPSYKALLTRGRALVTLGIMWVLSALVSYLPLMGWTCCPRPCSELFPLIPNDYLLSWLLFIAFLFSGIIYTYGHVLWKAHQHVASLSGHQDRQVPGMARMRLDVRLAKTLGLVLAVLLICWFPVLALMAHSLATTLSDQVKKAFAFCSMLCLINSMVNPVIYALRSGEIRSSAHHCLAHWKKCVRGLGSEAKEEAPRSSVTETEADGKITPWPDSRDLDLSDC
- PROTOCOL TEXT: competitive radioligand binding assay, displacement of [3H]CP55,940, HEK cell membranes
- Design: expressed in transfected cells; host or cells: HEK293 cells, P2 membrane preparation
- PROTOCOL CONDITIONS: hCB2 Ki, [3H]CP55,940 1 nM, value in brackets after pKi
Entries and their Ki values follow.
State the answer as a number, implicitly in nM.

Answered cases to consult:
N#CCCCCn1cc(C(=O)N[C@@H](Cc2ccccc2)C(N)=O)c2ccccc21 776
COC(=O)[C@H](Cc1ccccc1)NC(=O)c1cn(CCCCC#N)c2ccccc12 8.71
COC(=O)[C@@H](NC(=O)c1nn(CCCCC#N)c2ccccc12)C(C)C 6.46
COC(=O)[C@@H](NC(=O)c1nn(CCCCF)c2ccccc12)C(C)C 1.6
COC(=O)[C@@H](NC(=O)c1cn(CCCCC#N)c2ncccc12)C(C)(C)C 2.4

Pending molecule:
I looked up CC(C)(C)[C@H](NC(=O)c1cn(CCCCF)c2ccccc12)C(N)=O and its Ki for human CB2 (Homo sapiens) was 8

###

- MEASURED TARGET: UniProtKB P21554
- Sequence (P21554 whole entry): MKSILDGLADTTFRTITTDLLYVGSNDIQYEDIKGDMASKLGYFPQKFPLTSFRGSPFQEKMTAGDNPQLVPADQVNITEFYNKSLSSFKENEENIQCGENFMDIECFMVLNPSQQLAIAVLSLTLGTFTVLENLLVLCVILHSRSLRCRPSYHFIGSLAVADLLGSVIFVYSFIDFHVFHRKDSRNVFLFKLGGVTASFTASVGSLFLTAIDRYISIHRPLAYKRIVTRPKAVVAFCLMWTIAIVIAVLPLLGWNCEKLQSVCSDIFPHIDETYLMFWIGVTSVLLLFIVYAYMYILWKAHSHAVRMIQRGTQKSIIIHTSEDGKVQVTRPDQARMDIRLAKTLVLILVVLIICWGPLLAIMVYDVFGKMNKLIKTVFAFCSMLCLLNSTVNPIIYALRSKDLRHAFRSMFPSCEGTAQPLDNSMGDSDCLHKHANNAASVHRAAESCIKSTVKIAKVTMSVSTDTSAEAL
- PROTOCOL TEXT: fluorescence-based membrane potential assay (GIRK activation) in AtT20 cells
- Format: cell-based
- Parameters: expressed in transfected cells; host or cells: mouse AtT20 FlpIn cells
- PROTOCOL CONDITIONS: hCB1 EC50, AtT20-hCB1; value in brackets after pEC50
# reported log10(EC50); entries follow
Field: value | Transform: log10 | Quantity: EC50 | Unit: nM

In the examples that follow, each entry is paired with its recorded log10(EC50).
COC(=O)[C@@H](NC(=O)c1nn(CCCCC#N)c2ccccc12)C(C)C 0.56
COC(=O)[C@@H](NC(=O)c1cn(CCCCC#N)c2ccccc12)C(C)(C)C 0.43
COC(=O)[C@@H](NC(=O)c1cn(CCCCC#N)c2ncccc12)C(C)C 2.63

Item: CC(C)[C@H](NC(=O)c1nn(CCCCF)c2ccccc12)C(N)=O | log10(EC50): 0.78

Summary for this molecule, NC(=O)[C@H](Cc1ccccc1)NC(=O)c1nn(CCCCF)c2ccccc12 : log10(EC50) is 2.70

###

- MEASURED TARGET: human CB2 (Homo sapiens)
- PROTOCOL TEXT: fluorescence-based membrane potential assay (GIRK activation) in AtT20 cells
- Assay type: cell-based
- Parameters: expressed in transfected cells; host or cells: mouse AtT20 FlpIn cells
- PROTOCOL CONDITIONS: hCB2 EC50, AtT20-hCB2; value in brackets after pEC50
pEC50: −log10 of the molar value.
Would you mind labelling by pEC50? At or over 8 is criterion met, under is criterion not met.

Use the examples below as a reference point.
N#CCCCCn1cc(C(=O)N[C@@H](Cc2ccccc2)C(N)=O)c2cccnc21 criterion not met
COC(=O)[C@@H](NC(=O)c1cn(CCCCC#N)c2ncccc12)C(C)C criterion not met
COC(=O)[C@@H](NC(=O)c1cn(CCCCC#N)c2ccccc12)C(C)(C)C criterion met
CC(C)[C@H](NC(=O)c1cn(CCCCC#N)c2ncccc12)C(N)=O criterion not met
COC(=O)[C@H](Cc1ccccc1)NC(=O)c1cn(CCCCF)c2ncccc12 criterion not met

Query: Given COC(=O)[C@@H](NC(=O)c1nn(CCCCC#N)c2ccccc12)C(C)(C)C , state whether its pEC50 is at least 8.
Response: criterion met

Query: Say whether NC(=O)[C@H](Cc1ccccc1)NC(=O)c1cn(CCCCF)c2ncccc12 shows pEC50 of 8 or more.
Response: criterion not met

Query: Please tell me: is the molecule COC(=O)[C@@H](NC(=O)c1nn(CCCCC#N)c2ccccc12)C(C)C at or over 8 in terms of pEC50?
Response: criterion met
